The reported measurements were obtained from patent US6872690B2.

System: Zea mays
Assay: Post-emergence herbicidal activity test
Format: in vivo
Settings: 0.400 kg/ha, 2-4 weeks after treatment
Reported Post-emergence application ZEAMX values follow for various compounds

Compound	Experimental Target	Value Kind	Recorded Result
COc1cc(C#Cc2ccccc2)nc(Oc2cc(C(F)(F)F)nn2C)c1 [Example 27]	Zea mays	Post-emergence application ZEAMX	3 (3-Moderate effect)
Cc1cc(C#Cc2ccc(F)cc2)nc(Oc2cc(C(F)(F)F)nn2C)c1 [Example 2]	Zea mays	Post-emergence application ZEAMX	2 (2-Slight effect)
Cc1cc(C#Cc2ccccc2)nc(Oc2cc(C(F)(F)F)nn2C)c1 [Example 1]	Zea mays	Post-emergence application ZEAMX	5 (5-Definite injury)
Cn1nc(C(F)(F)F)cc1Oc1cccc(C#Cc2ccccc2)n1 [Example 31]	Zea mays	Post-emergence application ZEAMX	3 (3-Moderate effect)

So the reported Post-emergence application ZEAMX for Cc1cc(Oc2cc(C(F)(F)F)nn2C)nc(C#Cc2ccccc2)n1 [Example 161] , on Zea mays, turned out to be 2 (2-Slight effect)

----------
System: Cassia obtusifolia
Assay: Post-emergence herbicidal activity test
Type: in vivo
Settings: 0.100 kg/ha, 2-4 weeks after treatment
Value Kind: Post-emergence application CASOB

Worked examples, 3 compounds total:
1) COc1cc(C#Cc2ccccc2)nc(Oc2cc(C(F)(F)F)nn2C)c1 7 (7-Good herbicidal effect)
2) Cn1nc(C(F)(F)F)cc1Oc1cccc(C#Cc2ccccc2)n1 6 (6-Herbicidal effect)
3) Cc1cc(C#Cc2ccccc2)nc(Oc2cc(C(F)(F)F)nn2C)c1 7 (7-Good herbicidal effect)

Lab note: next compound to report on.
So the reported Post-emergence application CASOB for `Cc1cc(Oc2cc(C(F)(F)F)nn2C)nc(C#Cc2ccccc2)n1` , on Cassia obtusifolia, turned out to be 1 (1-Trace effect)

----------
Test system: Digitaria sanguinalis
Assay: Pre-emergence test
Assay type: in vivo
Settings: 0.100 kg/ha, 3 weeks after treatment
Value Kind: Assessment (pre-emergence application) DIGSA

1) Cc1cc(Oc2cc(C(F)(F)F)nn2C)nc(C#Cc2ccccc2)n1 3 (3-Moderate effect)

So the reported Assessment (pre-emergence application) DIGSA for `Cc1cc(C#Cc2ccccc2)nc(Oc2cc(C(F)(F)F)nn2C)c1` , on Digitaria sanguinalis, turned out to be 9 (9-Complete kill)

So the reported Assessment (pre-emergence application) DIGSA for `Cn1nc(C(F)(F)F)cc1Oc1cccc(C#Cc2ccccc2)n1` , on Digitaria sanguinalis, turned out to be 5 (5-Definite injury)

So the reported Assessment (pre-emergence application) DIGSA for `COc1cc(C#Cc2ccccc2)nc(Oc2cc(C(F)(F)F)nn2C)c1` , on Digitaria sanguinalis, turned out to be 6 (6-Herbicidal effect)

----------
Reported Assessment (pre-emergence application) ABUTH values follow for various molecules
System: Abutilon theophrasti
Assay: Pre-emergence test
Type: in vivo
Settings: 0.100 kg/ha, 3 weeks after treatment

1. Cc1cc(Oc2cc(C(F)(F)F)nn2C)nc(C#Cc2ccccc2)n1 4 (4-Injury)
2. Cc1cc(C#Cc2ccccc2)nc(Oc2cc(C(F)(F)F)nn2C)c1 5 (5-Definite injury)
3. COc1cc(C#Cc2ccccc2)nc(Oc2cc(C(F)(F)F)nn2C)c1 5 (5-Definite injury)

Lab note: next molecule to report on.
Documented Assessment (pre-emergence application) ABUTH of `Cc1cc(C#Cc2ccc(F)cc2)nc(Oc2cc(C(F)(F)F)nn2C)c1` : 2 (2-Slight effect)

----------
Tested on: Zea mays
Assay: Pre-emergence test
Type: in vivo
Settings: 0.100 kg/ha, 3 weeks after treatment
Value Kind: Assessment (pre-emergence application) ZEAMX

1) Cc1cc(Oc2cc(C(F)(F)F)nn2C)nc(C#Cc2ccccc2)n1 0 (0-No effect)
2) Cc1cc(C#Cc2ccc(F)cc2)nc(Oc2cc(C(F)(F)F)nn2C)c1 1 (1-Trace effect)
3) COc1cc(C#Cc2ccccc2)nc(Oc2cc(C(F)(F)F)nn2C)c1 2 (2-Slight effect)
4) Cc1cc(C#Cc2ccccc2)nc(Oc2cc(C(F)(F)F)nn2C)c1 2 (2-Slight effect)

Documented Assessment (pre-emergence application) ZEAMX of `Cn1nc(C(F)(F)F)cc1Oc1cccc(C#Cc2ccccc2)n1` : 2 (2-Slight effect)

----------
Tested on: Matricaria inodora
Assay: Post-emergence herbicidal activity test
Assay type: in vivo
Settings: 0.100 kg/ha, 2-4 weeks after treatment
Description: To evaluate their herbicidal activity, compounds according to the invention are tested using a representative range of plants: These acetone solutions are diluted with water and the resulting formulations applied at dosage levels equivalent of about 0.025 to 0. 4 kg per hectare of test compound per pot. After spraying the plants are placed on greenhouse benches and are cared for in the usual manner, commensurate with conventional greenhouse practices. […]
Value Kind: Post-emergence application MATIN

Compound	Post-emergence application MATIN
Cc1cc(C#Cc2ccccc2)nc(Oc2cc(C(F)(F)F)nn2C)c1 [Example 1]	5 (5-Definite injury)

Documented Post-emergence application MATIN of Cn1nc(C(F)(F)F)cc1Oc1cccc(C#Cc2ccccc2)n1 [Example 31] : 3 (3-Moderate effect)

Documented Post-emergence application MATIN of Cc1cc(Oc2cc(C(F)(F)F)nn2C)nc(C#Cc2ccccc2)n1 [Example 161] : 3 (3-Moderate effect)

Documented Post-emergence application MATIN of COc1cc(C#Cc2ccccc2)nc(Oc2cc(C(F)(F)F)nn2C)c1 [Example 27] : 5 (5-Definite injury)

Documented Post-emergence application MATIN of Cc1cc(C#Cc2ccc(F)cc2)nc(Oc2cc(C(F)(F)F)nn2C)c1 [Example 2] : 5 (5-Definite injury)

----------
System: Ipomoea hederacea
Assay: Pre-emergence test
Assay type: in vivo
Settings: 0.100 kg/ha, 3 weeks after treatment
Reported Assessment (pre-emergence application) IPOHE values follow for various molecules

1. COc1cc(C#Cc2ccccc2)nc(Oc2cc(C(F)(F)F)nn2C)c1 4 (4-Injury)
2. Cc1cc(C#Cc2ccc(F)cc2)nc(Oc2cc(C(F)(F)F)nn2C)c1 2 (2-Slight effect)
3. Cc1cc(Oc2cc(C(F)(F)F)nn2C)nc(C#Cc2ccccc2)n1 3 (3-Moderate effect)

Lab note: next molecule to report on.
Documented Assessment (pre-emergence application) IPOHE of `Cc1cc(C#Cc2ccccc2)nc(Oc2cc(C(F)(F)F)nn2C)c1` : 4 (4-Injury)

----------
Tested on: Lamium purpureum
Assay: Pre-emergence test
Assay type: in vivo
Settings: 0.100 kg/ha, 3 weeks after treatment
Reported Assessment (pre-emergence application) LAMPU values follow for various molecules

Worked examples, 2 molecules total:
1. COc1cc(C#Cc2ccccc2)nc(Oc2cc(C(F)(F)F)nn2C)c1 8 (8-Approaching complete kill)
2. Cc1cc(C#Cc2ccccc2)nc(Oc2cc(C(F)(F)F)nn2C)c1 8 (8-Approaching complete kill)

Lab note: next molecule to report on.
Documented Assessment (pre-emergence application) LAMPU of `Cc1cc(Oc2cc(C(F)(F)F)nn2C)nc(C#Cc2ccccc2)n1` : 5 (5-Definite injury)
